Each recorded value in this set is attributed to ChEMBL document CHEMBL1961873.

target: Tyrosine-protein kinase JAK3 (Homo sapiens) (UniProt P52333); details: at 1 µM
Sequence (P52333 whole entry): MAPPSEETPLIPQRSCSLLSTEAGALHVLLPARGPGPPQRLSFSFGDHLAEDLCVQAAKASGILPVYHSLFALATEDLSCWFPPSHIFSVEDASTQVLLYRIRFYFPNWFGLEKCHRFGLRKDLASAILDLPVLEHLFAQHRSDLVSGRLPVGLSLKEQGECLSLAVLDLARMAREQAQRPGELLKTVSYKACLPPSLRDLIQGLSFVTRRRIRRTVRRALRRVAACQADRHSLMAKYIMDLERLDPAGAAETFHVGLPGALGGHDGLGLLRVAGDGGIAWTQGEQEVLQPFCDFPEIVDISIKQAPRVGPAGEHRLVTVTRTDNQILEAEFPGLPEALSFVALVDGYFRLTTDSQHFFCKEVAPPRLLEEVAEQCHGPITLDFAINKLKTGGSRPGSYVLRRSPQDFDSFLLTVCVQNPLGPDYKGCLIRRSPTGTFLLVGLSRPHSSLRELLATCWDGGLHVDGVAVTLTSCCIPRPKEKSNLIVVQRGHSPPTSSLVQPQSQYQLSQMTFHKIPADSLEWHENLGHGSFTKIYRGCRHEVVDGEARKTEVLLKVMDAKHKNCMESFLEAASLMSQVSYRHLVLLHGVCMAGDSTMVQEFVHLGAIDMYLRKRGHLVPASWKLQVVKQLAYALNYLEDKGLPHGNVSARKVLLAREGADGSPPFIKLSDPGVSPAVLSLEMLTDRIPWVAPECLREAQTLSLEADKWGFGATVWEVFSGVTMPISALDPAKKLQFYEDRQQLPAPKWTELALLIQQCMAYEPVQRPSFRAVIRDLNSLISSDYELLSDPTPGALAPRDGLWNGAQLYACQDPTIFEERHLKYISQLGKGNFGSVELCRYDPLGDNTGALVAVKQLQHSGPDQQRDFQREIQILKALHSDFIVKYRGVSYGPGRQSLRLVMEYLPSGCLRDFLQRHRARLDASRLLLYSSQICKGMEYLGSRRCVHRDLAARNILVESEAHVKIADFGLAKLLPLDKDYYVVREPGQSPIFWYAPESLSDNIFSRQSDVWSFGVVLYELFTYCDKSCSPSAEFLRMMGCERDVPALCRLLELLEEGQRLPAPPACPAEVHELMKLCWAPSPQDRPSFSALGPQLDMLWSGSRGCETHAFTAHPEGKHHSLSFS
Description: GSK_PKIS: JAK3 mean inhibition at 1 uM [Nanosyn]
Each record here notes measured inhibition.
Just the number in %, nothing appended.

COc1ccc2ncn(-c3cc(O[C@H](C)c4ccccc4C(F)(F)F)c(C(N)=O)s3)c2c1 : 6.44
Cc1c2ccc(N(C)c3ccnc(Nc4cccc(S(N)(=O)=O)c4)n3)cc2nn1C : 0.05
COc1c(C(N)=O)cc(-c2ccc(Cl)cc2)cc1-c1ccc(S(N)(=O)=O)cc1 : -0.75
COc1cc(N2CCN(C(C)C)CC2)ccc1Nc1nc(Nc2cccc3ncccc23)c2cc[nH]c2n1 : 1.57

Kindly consider the entry below.
// query I have this compound here, `O=C(Nc1n[nH]c2nnc(-c3cccnc3)cc12)C1CC1` , and I need its recorded inhibition.
// result 0.02

----------
target: Epidermal growth factor receptor (Homo sapiens); conditions: at 0.1 µM
Description: GSK_PKIS: EGFR mean inhibition at 0.1 uM [Nanosyn]
metric: inhibition (%)
Just the number in %, nothing appended.

Reference set, count: 5
O=C1Nc2ccccc2/C1=C1\CCc2cc(O)ccc21 : 0.24
NS(=O)(=O)c1ccc(N/N=C2\C(=O)Nc3cccc(CCc4ccncc4)c32)cc1 : 4.28
COc1ccc(Nc2ncc(-c3ccccc3)o2)cc1OC : 1.83
COc1c(C(N)=O)cc(-c2ccc(Cl)cc2)cc1-c1ccc(S(N)(=O)=O)cc1 : 1.55
NS(=O)(=O)c1ccc(N/N=C2\C(=O)Nc3ccc(C(=O)NCc4ccncc4)cc32)cc1 : -0.63

// query I have this molecule here, `COc1cccc(-n2ncc3c(N/N=C/c4ccc(C(=O)NCCN(C)C)cc4)ncnc32)c1` , and I need its recorded inhibition.
// result 16.7

// query I have this molecule here, `CN1CCC(n2cnc(-c3ccc(F)cc3)c2-c2ccnc(NCCO)n2)CC1` , and I need its recorded inhibition.
// result 0.6

// query I have this molecule here, `c1cnn2ncc(-c3ccnc(NCCCN4CCOCC4)n3)c2c1` , and I need its recorded inhibition.
// result -0.42

// query I have this molecule here, CC1=C(C(=O)Nc2ccc3[nH]nc(C)c3c2)C(c2ccc(C(F)(F)F)cc2)CC(=O)N1 (stereo not given) , and I need its recorded inhibition.
// result 2.76

// query I have this molecule here, `N#Cc1cccc(Nc2ncc(-c3ccccc3)o2)c1` , and I need its recorded inhibition.
// result -0.19

// query I have this molecule here, `COc1cc(N2CCN(C(C)C)CC2)ccc1Nc1nc(Nc2cccc(F)c2C(=O)O)c2cc[nH]c2n1` , and I need its recorded inhibition.
// result 0.15

----------
biological target: Cytoplasmic tyrosine-protein kinase BMX (Homo sapiens); conditions: at 0.1 µM
Description: GSK_PKIS: BMX mean inhibition at 0.1 uM [Nanosyn]
metric: inhibition (%)
Just the number in %, nothing appended.

COc1cc2c(cc1Nc1nc(Nc3cccc(F)c3C(N)=O)c3cc[nH]c3n1)N(C(=O)CN1CCN(C(C)C)CC1)CC2 : 2.26

// query I have this molecule here, `CS(=O)(=O)CCNCc1ccc(-c2ccc3ncnc(Nc4ccc(OCc5ccccc5)cc4)c3c2)o1` , and I need its recorded inhibition.
// result 3.59

// query I have this molecule here, `c1cnn2ncc(-c3ccnc(NCCCN4CCOCC4)n3)c2c1` , and I need its recorded inhibition.
// result -0.07

// query I have this molecule here, `CC(C)c1ccc(-c2cc(-c3c[nH]nc3-c3ccccn3)ccn2)cc1` , and I need its recorded inhibition.
// result -0.47

// query I have this molecule here, `CS(=O)(=O)CCNCc1ccc(-c2ccc3ncnc(Nc4ccc(OCc5cccc(C(F)(F)F)c5)cc4)c3c2)o1` , and I need its recorded inhibition.
// result 3.21
